Target: urease (Canavalia ensiformis, UniProt P07374)
Sequence (P07374 whole entry, looked up): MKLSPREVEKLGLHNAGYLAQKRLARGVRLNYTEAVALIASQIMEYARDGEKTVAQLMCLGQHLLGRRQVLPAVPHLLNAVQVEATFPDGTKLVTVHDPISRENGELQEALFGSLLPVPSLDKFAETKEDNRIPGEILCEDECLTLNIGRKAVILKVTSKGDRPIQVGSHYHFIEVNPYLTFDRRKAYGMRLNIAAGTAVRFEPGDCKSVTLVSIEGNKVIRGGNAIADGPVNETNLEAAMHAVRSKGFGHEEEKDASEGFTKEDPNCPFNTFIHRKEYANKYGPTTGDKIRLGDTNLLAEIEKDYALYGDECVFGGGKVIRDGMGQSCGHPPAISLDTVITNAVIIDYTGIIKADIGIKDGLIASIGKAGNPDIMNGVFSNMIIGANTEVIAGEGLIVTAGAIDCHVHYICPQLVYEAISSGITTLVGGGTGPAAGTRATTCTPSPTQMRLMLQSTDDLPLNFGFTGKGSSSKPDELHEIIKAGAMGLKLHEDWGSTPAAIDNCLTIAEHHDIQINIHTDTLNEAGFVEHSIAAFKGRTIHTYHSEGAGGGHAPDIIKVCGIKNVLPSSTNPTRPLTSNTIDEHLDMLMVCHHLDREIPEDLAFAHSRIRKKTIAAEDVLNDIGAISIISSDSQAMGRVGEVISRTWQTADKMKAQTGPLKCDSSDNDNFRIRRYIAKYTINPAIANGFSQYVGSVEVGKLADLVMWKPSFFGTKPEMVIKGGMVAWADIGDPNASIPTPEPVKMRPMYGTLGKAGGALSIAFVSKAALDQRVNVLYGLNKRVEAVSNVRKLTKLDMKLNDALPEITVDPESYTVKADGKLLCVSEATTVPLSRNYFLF
Test: biochemical
Settings: observed; screening concentration 0.5 mM; <50% inhibition = inactive; Insoluble = partially soluble in HPLC methanol of the protocol; read-out: Urease Inhibition Activity IC50 ± SEM
pIC50: −log10 of the molar value.
Here the recorded pIC50 is given for each entry.

{"molecule": "O=C(NNC(=S)Nc1ccc(OC(F)(F)F)cc1)c1ccncc1 [Compound 11]", "pIC50": 4.88}
{"molecule": "COc1ccc(NC(=S)NNC(=O)c2ccncc2)cc1 [Compound 20]", "pIC50": 4.66}
{"molecule": "O=C(NNC(=S)Nc1c(F)c(F)c(F)c(F)c1F)c1ccncc1 [Compound 12]", "pIC50": 4.91}
{"molecule": "CC(=O)NO [Aetohydaoxamic acid, acetohydroxamic acid, reference compound]", "pIC50": 4.69}
{"molecule": "O=C(NNC(=S)Nc1cc(Cl)c(Cl)cc1Cl)c1ccncc1 [Compound 21]", "pIC50": 4.55}

* * *

Below, each entry is listed with its recorded melting point.

{"query-smiles": "O=C(NNC(=S)Nc1cc(Cl)ccc1Cl)c1ccncc1", "melting point": "172 to 173 °C"}
{"query-smiles": "O=C(NNC(=S)Nc1ccccc1F)c1ccncc1", "melting point": "241 to 242 °C"}
{"query-smiles": "O=C(NNC(=S)Nc1ccccc1Br)c1ccncc1", "melting point": "156 to 157 °C"}
{"query-smiles": "CCCCCCNC(=S)NNC(=O)c1ccncc1", "melting point": "215 to 216 °C"}
{"query-smiles": "O=C(NNC(=S)Nc1cccc(Cl)c1Cl)c1ccncc1", "melting point": "198 to 199 °C"}
{"query-smiles": "O=C(NNC(=S)Nc1c(F)cccc1F)c1ccncc1", "melting point": "248 to 249 °C"}
{"query-smiles": "O=C(NNC(=S)NC1CCCC1)c1ccncc1", "melting point": "223 to 224 °C"}
{"query-smiles": "O=C(NNC(=S)Nc1ccc(F)cc1F)c1ccncc1", "melting point": "191 to 192 °C"}
{"query-smiles": "O=C(NNC(=S)Nc1ccc(F)cc1)c1ccncc1", "melting point": "191 to 192 °C"}
{"query-smiles": "O=C(NNC(=S)Nc1cccc(N=C=S)c1)c1ccncc1", "melting point": "195 to 196 °C"}

* * *

In this section, each of the molecules is paired with its reported melting point.
measurement-name: melting point

{"query-smiles": "O=C(NNC(=S)Nc1c(Cl)cccc1Cl)c1ccncc1", "measurement-name": "melting point", "result": "127 to 128 °C"}
{"query-smiles": "O=C(NNC(=S)NC1CCCCC1)c1ccncc1", "measurement-name": "melting point", "result": "212 to 213 °C"}
{"query-smiles": "O=C(NNC(=S)Nc1cccc(I)c1)c1ccncc1", "measurement-name": "melting point", "result": "192 to 193 °C"}
{"query-smiles": "O=C(NNC(=S)Nc1cccc(Br)c1)c1ccncc1", "measurement-name": "melting point", "result": "192 to 193 °C"}
{"query-smiles": "O=C(NNC(=S)Nc1ccc(Cl)c(C(F)(F)F)c1)c1ccncc1", "measurement-name": "melting point", "result": "231 to 232 °C"}

* * *

Assay: 3T3 cytotoxicity assay (MTT)
Conditions: mouse

{"query-smiles": "NNC(=O)c1ccncc1", "IC50 [µM]": 28.5}

* * *

Biological target: urease (Canavalia ensiformis, UniProt P07374)
Test: biochemical
Procedure: During the experiments all the compounds were evaluated at 0.5 mM each in triplicate.
pIC50: −log10 of the molar value.
measurement-name: pIC50

{"query-smiles": "O=C(NNC(=S)NC1CCCCC1)c1ccncc1", "numeric-readout": 4.65}
{"query-smiles": "O=C(NNC(=S)Nc1ccccc1Br)c1ccncc1", "numeric-readout": 4.45}
{"query-smiles": "O=C(NNC(=S)Nc1ccccc1)c1ccncc1", "numeric-readout": 4.20}
{"query-smiles": "O=C(NNC(=S)Nc1cc(Cl)ccc1Cl)c1ccncc1", "numeric-readout": 4.44}
{"query-smiles": "O=C(NNC(=S)Nc1cccc(Cl)c1Cl)c1ccncc1", "numeric-readout": 4.41}
{"query-smiles": "O=C(NNC(=S)Nc1cccc(I)c1)c1ccncc1", "numeric-readout": 4.83}

* * *

Target: urease (Canavalia ensiformis)
Test: biochemical
Details: observed; screening concentration 0.5 mM; <50% inhibition = inactive; Insoluble = partially soluble in HPLC methanol of the protocol

{"query-smiles": "O=C(NNC(=S)Nc1c(Cl)cccc1Cl)c1ccncc1", "Urease Inhibition Activity IC50 ± SEM": "Insoluble"}
{"query-smiles": "CCCCCCNC(=S)NNC(=O)c1ccncc1", "Urease Inhibition Activity IC50 ± SEM": "Insoluble"}

* * *

Molecular target: urease (Canavalia ensiformis, UniProt P07374)
Assay: biochemical
pIC50: −log10 of the molar value.

{"compound": "O=C(NNC(=S)Nc1cccc(Br)c1)c1ccncc1 [Compound 22]", "study-system": "urease (Canavalia ensiformis, UniProt P07374)", "pIC50": 4.66}
{"compound": "O=C(NNC(=S)Nc1ccc(F)cc1)c1ccncc1 [Compound 19]", "study-system": "urease (Canavalia ensiformis, UniProt P07374)", "pIC50": 4.90}
{"compound": "O=C(NNC(=S)Nc1ccc(Cl)cc1)c1ccncc1 [Compound 18]", "study-system": "urease (Canavalia ensiformis, UniProt P07374)", "pIC50": 4.58}
{"compound": "O=C(NNC(=S)Nc1cc(C(F)(F)F)ccc1Cl)c1ccncc1 [Compound 8]", "study-system": "urease (Canavalia ensiformis, UniProt P07374)", "pIC50": 4.35}
{"compound": "O=C(NNC(=S)NC1CCCC1)c1ccncc1 [Compound 13]", "study-system": "urease (Canavalia ensiformis, UniProt P07374)", "pIC50": 4.87}
{"compound": "O=C(NNC(=S)Nc1cccc(F)c1)c1ccncc1 [Compound 16]", "study-system": "urease (Canavalia ensiformis, UniProt P07374)", "pIC50": 4.67}
{"compound": "O=C(NNC(=S)Nc1c(F)cccc1F)c1ccncc1 [Compound 7]", "study-system": "urease (Canavalia ensiformis, UniProt P07374)", "pIC50": 4.33}
{"compound": "O=C(NNC(=S)Nc1ccc(Cl)c(C(F)(F)F)c1)c1ccncc1 [Compound 9]", "study-system": "urease (Canavalia ensiformis, UniProt P07374)", "pIC50": 4.85}
{"compound": "O=C(NNC(=S)Nc1ccc(F)cc1F)c1ccncc1 [Compound 15]", "study-system": "urease (Canavalia ensiformis, UniProt P07374)", "pIC50": 4.47}
{"compound": "N#Cc1ccc(NC(=S)NNC(=O)c2ccncc2)cc1 [Compound 10]", "study-system": "urease (Canavalia ensiformis, UniProt P07374)", "pIC50": 4.80}

* * *

{"compound": "N#Cc1ccc(NC(=S)NNC(=O)c2ccncc2)cc1 [Compound 10]", "melting point": "162 to 163 °C"}
{"compound": "O=C(NNC(=S)Nc1cc(C(F)(F)F)ccc1Cl)c1ccncc1 [Compound 8]", "melting point": "183 to 184 °C"}
{"compound": "O=C(NNC(=S)Nc1cccc(F)c1)c1ccncc1 [Compound 16]", "melting point": "174 to 175 °C"}

* * *

System: ROS from zymosan activated whole blood cells
Test: Oxidative burst assay (in vitro anti-inflammatory, ROS inhibition)
Assay type: cell-based, human
Settings: observed; ROS inhibition, zymosan activated whole blood cells; screening concentration 25 µg/mL; <50% inhibition = inactive
Method: In this experiment all the compounds were evaluated at 25 µg/mL, each in triplicate. All studies on human blood cells was carried out after an approval from independent ethics committee (Prof. Dr. Ghazala H. Rizwani Chair, IEC, Prof. Qamar Amin, Prof, Dr. Muddasir Uddin, Dr. Shahnaz Ghazi, Dr. SamiuzZaman, Prof. Dr. Ahsana Dar Farooq, Dr. M. Raza Shah member IEC), International Center for Chemical and Biological Sciences, University of Karachi, No: ICCBS/IEC-008-BC-2015/Protocol/1.0. […]
measurement-name: Anti-Inflammatory Activity IC50 ± SD

{"compound": "O=C(NNC(=S)Nc1ccc(F)cc1)c1ccncc1 [Compound 19]", "result": "Inactive"}
{"compound": "NNC(=O)c1ccncc1 [Isoniazid(1), Isoniazid]", "result": "Inactive"}
{"compound": "O=C(NNC(=S)Nc1cccc([N+](=O)[O-])c1)c1ccncc1 [Compound 27]", "result": "Inactive"}
{"compound": "O=C(NNC(=S)Nc1ccccc1Br)c1ccncc1 [Compound 14]", "result": "Inactive"}
{"compound": "O=C(NNC(=S)Nc1c(F)c(F)c(F)c(F)c1F)c1ccncc1 [Compound 12]", "result": "27.7 ± 2.4 µg/mL"}
{"compound": "O=C(NNC(=S)Nc1cc(C(F)(F)F)ccc1Cl)c1ccncc1 [Compound 8]", "result": "Inactive"}
{"compound": "O=C(NNC(=S)Nc1ccc(OC(F)(F)F)cc1)c1ccncc1 [Compound 11]", "result": "Inactive"}
{"compound": "O=C(NNC(=S)Nc1cccc(Cl)c1Cl)c1ccncc1 [Compound 4]", "result": "Inactive"}
{"compound": "O=C(NNC(=S)Nc1c(Cl)cccc1Cl)c1ccncc1 [Compound 6]", "result": "Inactive"}
{"compound": "O=C(NNC(=S)Nc1ccc(F)cc1F)c1ccncc1 [Compound 15]", "result": "Inactive"}
{"compound": "N#Cc1ccc(NC(=S)NNC(=O)c2ccncc2)cc1 [Compound 10]", "result": "Inactive"}
{"compound": "O=C(NNC(=S)Nc1ccc(Cl)cc1)c1ccncc1 [Compound 18]", "result": "Inactive"}
{"compound": "O=C(NNC(=S)Nc1ccccc1)c1ccncc1 [Compound 24]", "result": "Inactive"}
{"compound": "O=C(NNC(=S)Nc1cc(Cl)c(Cl)cc1Cl)c1ccncc1 [Compound 21]", "result": "Inactive"}
{"compound": "O=C(NNC(=S)Nc1ccccc1F)c1ccncc1 [Compound 3]", "result": "Inactive"}
{"compound": "O=C(NNC(=S)NC1CCCC1)c1ccncc1 [Compound 13]", "result": "Inactive"}
{"compound": "COc1ccc(NC(=S)NNC(=O)c2ccncc2)cc1 [Compound 20]", "result": "Inactive"}
{"compound": "O=C(NNC(=S)Nc1c(F)cccc1F)c1ccncc1 [Compound 7]", "result": "Inactive"}
{"compound": "CCCCCCNC(=S)NNC(=O)c1ccncc1 [Compound 25]", "result": "Inactive"}

Numbers sourced from paper PMC6494997.
